Numbers sourced from PubChem BioAssay AID1996.

- conditionSummary: buffer; pH 7.4; 200.0 µM
propertyLabel: solubility kinetic

Field: example entries. Status: answers known.
# molecule, result
data = [
    ("COC(=O)CCCNC(=O)c1ccccn1", "> 33.3 µg/mL"),
    ("O=C1CN(S(=O)(=O)c2cc(Br)ccc2Br)CCN1", "> 59.7 µg/mL"),
    ("O=C(COC(=O)c1cc(S(=O)(=O)N2CCOCC2)ccc1F)c1ccccc1", "> 61.1 µg/mL"),
    ("Cc1c(C(=O)N(C)C(C)c2ccncn2)oc2c(F)cccc12 (stereo not drawn)", "> 47 µg/mL"),
    ("O=S(=O)(Nc1ccncc1)c1cc(Cl)c(Cl)cc1Cl", "1.6 µg/mL"),
]

-- ask Specify reported solubility kinetic for the molecule shown: Cc1c(C)n(-c2ccccc2)c2ncnc(NCCN(C)C)c12
-- reply > 46.4 µg/mL

-- ask Specify reported solubility kinetic for the molecule shown: CCS(=O)(=O)c1ccc(O)c(NC(=O)Nc2ccc(C(C)(C)C)cc2)c1
-- reply 0.8 µg/mL

-- ask Specify reported solubility kinetic for the molecule shown: Cc1cccc(NC(=O)NC2CCCCCCC2)c1
-- reply 5.2 µg/mL

###

- conditionSummary: buffer; pH 7.4; 200.0 µM
solubility kinetic for assorted compounds

Field: example entries. Status: answers known.
# compound, solubility kinetic
rows = [
    ("COc1ccc(OC)c(N2C(=O)CC(=O)NC2=O)c1", "> 39.6 µg/mL"),
    ("CN(C)C1(CN=Cc2cc(Cl)cc([N+](=O)[O-])c2O)CCCCC1", "> 51 µg/mL"),
    ("CC1CCCN(C(=O)CNC(=O)c2ccco2)C1 (stereo unspecified)", "> 37.5 µg/mL"),
    ("COC(=O)C1CCN(C(=O)COC(=O)c2cc(S(=O)(=O)N3CCOCC3)ccc2C)CC1", "> 70.3 µg/mL"),
]

-- ask Specify reported solubility kinetic for the compound shown: Cc1ccc(OCC(=O)NCCCNC(=O)c2cccnc2)cc1C
-- reply > 51.2 µg/mL

-- ask Specify reported solubility kinetic for the compound shown: CCOc1ccc(NC(=S)N2CCCCCC2)cc1
-- reply > 41.8 µg/mL

###

solubility kinetic for assorted compounds
- conditionSummary: buffer; pH 7.4; 200.0 µM

Field: example entries. Status: answers known.
# compound, result
measured = [
    ("O=C(CS(=O)(=O)c1ccccc1)Nc1cccnc1", "> 41.4 µg/mL"),
    ("CCC(C)C(Nc1ncnc2scc(-c3ccccc3)c12)C(=O)O (centres undefined)", "> 51.2 µg/mL"),
    ("CCCN1C2CCCC1CC(NC(=S)Nc1ccc(OC)cc1)C2 (centres undefined)", "> 52.1 µg/mL"),
]

-- ask Specify reported solubility kinetic for the compound shown: NS(=O)(=O)c1ccc(CNC(=O)c2ccc3c(c2)OCO3)cc1
-- reply > 50.2 µg/mL

-- ask Specify reported solubility kinetic for the compound shown: Cc1c(NC(=O)C(C)Oc2ccc(Br)cc2)c(=O)n(-c2ccccc2)n1C (centres undefined)
-- reply > 64.5 µg/mL

-- ask Specify reported solubility kinetic for the compound shown: N#C/C(=C\c1ccccc1)C(=O)Nc1ccccn1
-- reply > 37.4 µg/mL

-- ask Specify reported solubility kinetic for the compound shown: CCOC(=O)c1sc(=NC(=O)C2CC2)n(C)c1C
-- reply > 40.2 µg/mL

-- ask Specify reported solubility kinetic for the compound shown: N#Cc1c(C(F)(F)F)cc(Cc2ccccc2)nc1SCC(=O)NCC(=O)O
-- reply > 61.4 µg/mL

-- ask Specify reported solubility kinetic for the compound shown: Cc1nc2ccccn2c1C(=O)NN=C1CCN(C)CC1
-- reply > 42.8 µg/mL
